FYI, the data here is from ChEMBL document CHEMBL1961873.

tested on: Platelet-derived growth factor receptor alpha (Homo sapiens), P16234 [D842V]; details: at 0.1 µM
Sequence (P16234 whole entry D842V): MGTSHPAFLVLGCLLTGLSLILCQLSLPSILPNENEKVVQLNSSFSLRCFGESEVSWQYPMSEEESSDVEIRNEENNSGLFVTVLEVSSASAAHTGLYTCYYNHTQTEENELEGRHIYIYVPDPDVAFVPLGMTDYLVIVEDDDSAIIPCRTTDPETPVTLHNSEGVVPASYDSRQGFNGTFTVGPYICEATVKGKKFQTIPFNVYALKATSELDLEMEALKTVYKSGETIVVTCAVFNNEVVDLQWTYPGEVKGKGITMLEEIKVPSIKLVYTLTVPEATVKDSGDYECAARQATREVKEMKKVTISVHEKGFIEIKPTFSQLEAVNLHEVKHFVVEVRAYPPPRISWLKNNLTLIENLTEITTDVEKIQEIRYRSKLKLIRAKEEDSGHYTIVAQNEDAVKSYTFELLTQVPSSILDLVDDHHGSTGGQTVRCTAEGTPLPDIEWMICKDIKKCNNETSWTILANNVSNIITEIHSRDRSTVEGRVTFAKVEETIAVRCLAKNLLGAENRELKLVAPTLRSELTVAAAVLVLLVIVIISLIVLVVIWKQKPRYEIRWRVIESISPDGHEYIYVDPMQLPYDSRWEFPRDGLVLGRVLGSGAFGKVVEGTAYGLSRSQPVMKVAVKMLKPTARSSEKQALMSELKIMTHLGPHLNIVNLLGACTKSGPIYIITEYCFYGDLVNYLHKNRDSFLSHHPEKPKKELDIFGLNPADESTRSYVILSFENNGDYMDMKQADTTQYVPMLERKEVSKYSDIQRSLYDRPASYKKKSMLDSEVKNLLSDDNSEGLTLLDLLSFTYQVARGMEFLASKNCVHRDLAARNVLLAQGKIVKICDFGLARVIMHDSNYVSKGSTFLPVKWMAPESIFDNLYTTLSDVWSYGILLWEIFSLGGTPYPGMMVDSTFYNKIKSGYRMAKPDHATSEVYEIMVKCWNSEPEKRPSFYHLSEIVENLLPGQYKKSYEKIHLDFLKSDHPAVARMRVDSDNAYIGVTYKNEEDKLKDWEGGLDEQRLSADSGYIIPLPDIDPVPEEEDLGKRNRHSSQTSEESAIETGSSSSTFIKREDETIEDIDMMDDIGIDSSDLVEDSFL
I'd be grateful if you could share measured inhibition for these entries.
# number only, unit % dropped from output

Entry O=C1Nc2ccccc2/C1=C1\CCc2cc(O)ccc21 , inhibition reported as 7.24

Entry CNC(=O)c1ncccc1Nc1nc(Nc2cc3c(cc2OC)CCCN3C(=O)CN(C)C)nc2[nH]ccc12 , inhibition reported as 3.17

Entry CCN1CCC(C(=O)Nc2n[nH]c3nnc(-c4cccc(F)c4F)cc23)CC1 , inhibition reported as 1.64

Entry CCOc1ccc2c(-c3ccnc(Nc4cc(OC)cc(C(F)(F)F)c4)n3)cnn2n1 , inhibition reported as 2.97

Entry COc1cccc(-n2ncc3c(N/N=C/c4ccc(C(=O)NCCN(C)C)cc4)ncnc32)c1 , inhibition reported as 55.7

Entry OCCCNc1nccc(-c2c(-c3ccc(F)cc3)nn3cc(C(F)(F)F)ccc23)n1 , inhibition reported as 2.53

Entry Cc1nnc(-c2cccc(-c3ccc(C(=O)NCC4CC4)cc3)c2)o1 , inhibition reported as 2.78

Entry CS(=O)(=O)Nc1ccc(-c2cc(-c3ccccc3)cc(C(N)=O)c2N)cc1 , inhibition reported as -0.88

Entry NS(=O)(=O)c1cccc(N/C=C2\C(=O)Nc3ccccc32)c1 , inhibition reported as 4.57

Entry Cn1c(-c2nonc2N)nc2cnccc21 , inhibition reported as 2.81

Entry Cc1c2ccc(N(C)c3ccnc(Nc4cccc(S(N)(=O)=O)c4)n3)cc2nn1C , inhibition reported as 13.9

Entry COC(=O)Nc1nc2cc(Oc3ccc(NC(=O)Nc4ccccc4)cc3)ccc2[nH]1 , inhibition reported as 0.57

* * *

I'd be grateful if you could share measured inhibition for these entries.
target: Tyrosine-protein kinase JAK2 (Homo sapiens) (UniProt O60674); settings: at 0.1 µM;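 also: mean percent inhibition of JAK2 activity, from the GSK PKIS kinase panel screen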
Sequence (O60674 whole entry): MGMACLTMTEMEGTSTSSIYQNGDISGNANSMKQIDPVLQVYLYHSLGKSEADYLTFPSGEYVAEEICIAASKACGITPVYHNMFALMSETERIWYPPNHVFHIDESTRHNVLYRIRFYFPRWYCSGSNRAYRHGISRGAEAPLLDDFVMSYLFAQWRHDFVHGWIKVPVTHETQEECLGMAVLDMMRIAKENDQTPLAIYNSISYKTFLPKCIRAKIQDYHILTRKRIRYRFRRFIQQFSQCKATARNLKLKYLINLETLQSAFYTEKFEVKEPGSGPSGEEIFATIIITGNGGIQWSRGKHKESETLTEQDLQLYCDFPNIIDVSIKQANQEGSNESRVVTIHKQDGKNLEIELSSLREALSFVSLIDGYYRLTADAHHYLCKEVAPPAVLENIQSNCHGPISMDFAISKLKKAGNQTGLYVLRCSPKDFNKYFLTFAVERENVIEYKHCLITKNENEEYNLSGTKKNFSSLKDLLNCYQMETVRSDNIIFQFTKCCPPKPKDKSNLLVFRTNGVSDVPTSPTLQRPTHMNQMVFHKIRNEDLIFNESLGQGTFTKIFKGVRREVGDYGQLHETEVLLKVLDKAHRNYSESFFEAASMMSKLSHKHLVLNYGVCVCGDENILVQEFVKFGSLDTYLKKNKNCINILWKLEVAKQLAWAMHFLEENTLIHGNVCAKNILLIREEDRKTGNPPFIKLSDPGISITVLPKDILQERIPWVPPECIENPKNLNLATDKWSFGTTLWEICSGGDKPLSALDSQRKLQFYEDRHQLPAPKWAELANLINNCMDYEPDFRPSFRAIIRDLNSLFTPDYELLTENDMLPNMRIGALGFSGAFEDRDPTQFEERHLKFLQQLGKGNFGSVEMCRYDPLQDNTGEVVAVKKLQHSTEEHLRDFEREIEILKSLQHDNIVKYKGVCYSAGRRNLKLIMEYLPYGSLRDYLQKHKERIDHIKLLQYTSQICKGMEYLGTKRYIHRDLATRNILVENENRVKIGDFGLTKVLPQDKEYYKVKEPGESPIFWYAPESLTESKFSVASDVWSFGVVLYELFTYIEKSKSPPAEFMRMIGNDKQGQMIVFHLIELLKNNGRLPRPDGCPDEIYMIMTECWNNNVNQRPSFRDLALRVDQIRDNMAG
# number only, unit % dropped from output

Entry O=C1Nc2ccccc2/C1=C1\CCc2cc(O)ccc21 , inhibition reported as 1.74

Entry CS(=O)(=O)CCNCc1ccoc1-c1ccc2ncnc(Nc3ccc(OCc4ccccc4)cc3)c2c1 , inhibition reported as -0.17

Entry CNC(=O)c1ncccc1Nc1nc(Nc2cc3c(cc2OC)CCCN3C(=O)CN(C)C)nc2[nH]ccc12 , inhibition reported as 1.24

Entry c1ccc(-c2n[nH]cc2-c2ccnc(-c3ccc(OCCn4ccnc4)cc3)c2)nc1 , inhibition reported as 0.38

Entry CN(c1ccc(NC(=O)NCCN2CCOCC2)cc1)c1ccnc(Nc2ccc(CS(C)(=O)=O)cc2)n1 , inhibition reported as 0.02

Entry CCCNc1cccc(-n2ncc3c(N/N=C/c4ccncc4)ncnc32)c1 , inhibition reported as 0.82

Entry CCn1c(-c2nonc2N)nc2cncc(C(=O)NCCNC)c21 , inhibition reported as 2.49

Entry CN1CCC(n2cnc(-c3ccc(F)cc3)c2-c2ccnc(NCCO)n2)CC1 , inhibition reported as 0.46

Entry FC(F)(F)CNc1nccc(-c2cnn3ncccc23)n1 , inhibition reported as 1.39

Entry COc1cccc(Nc2nccc(-c3cnn4ncccc34)n2)c1 , inhibition reported as 1.95

Entry Fc1cccc(COc2ccc(Nc3ncncc3C#Cc3ccccc3)cc2Cl)c1 , inhibition reported as 1.34

Entry CC1=C(C(=O)Nc2ccc3[nH]ncc3c2)C(c2ccc(F)cc2)N=C(c2ccc(C(F)(F)F)nc2)N1 (stereo unspecified) , inhibition reported as 1.27

Entry c1cnn2ncc(-c3ccnc(NCCCN4CCOCC4)n3)c2c1 , inhibition reported as 2.27

Entry Cc1cc(O)cc(C)c1/C=C/c1cncc(C(N)=O)c1 , inhibition reported as 2.3

Entry CC1(C)CC(n2cnc(-c3ccc(F)cc3)c2-c2ccnc(N)n2)CC(C)(C)N1 , inhibition reported as 0.57

Entry N#Cc1cccc(Nc2ncc(-c3ccccc3)o2)c1 , inhibition reported as 0.78

Entry O=C(Nc1n[nH]c2nnc(-c3cccnc3)cc12)C1CC1 , inhibition reported as -0.35

Entry O=C(O[C@H]1CN[C@H](C#Cc2cc3ncnc(Nc4ccc5c(cnn5Cc5ccccc5)c4)c3s2)C1)N1CCOCC1 , inhibition reported as -0.37

Entry COc1cc(N2CCN(C(C)C)CC2)ccc1Nc1nc(Nc2cccc3ncccc23)c2cc[nH]c2n1 , inhibition reported as -0.12

Entry COc1c(C(N)=O)cc(-c2ccc(Cl)cc2)cc1-c1ccc(S(N)(=O)=O)cc1 , inhibition reported as 2.98

Entry CS(=O)(=O)Nc1ccc(-c2ccc3c(NC(=O)C4CC4)n[nH]c3c2)cc1 , inhibition reported as 1.06
